Test system: UO-31
assay.procedure: NCI tumour cell line growth inhibition, 48 h
The source made the active and inactive calls. No stated cut-off is given here; in the data, active = GI50 up to about 1.1 µM and inactive = higher.
Examples of molecules with documented GI50 follow.
endpoint.label: GI50

>>> observed("Cc1ccc2c(=O)c(-c3nnc(N)s3)c[nH]c2n1")
"> 100 µM (inactive)"
>>> observed("CCCNC1=Nc2ccccc2N(Cc2ccccc2)CC1")
"30.3 µM (inactive)"
>>> observed("CC(C)(C)[Si](C)(C)OCC1CCC(n2cnc3c(NC(=O)c4ccccc4)ncnc32)O1 (centres undefined)")
"1.54 µM (inactive)"
>>> observed("c1ccc2c(c1)CCCc1cc3ccccc3nc1-2")
"> 100 µM (inactive)"
>>> observed("C/C(CC(=O)Nc1ccc([N+](=O)[O-])cc1)=N\\Nc1ccc([N+](=O)[O-])cc1[N+](=O)[O-]")
"20.6 µM (inactive)"
>>> observed("CC1=C[C@@H](C)C[C@]2(C)CC[C@H](O2)[C@]23CC[C@](C)(C[C@H](O2)[C@@H]2O[C@@](C)(CC2=O)[C@@H](O)[C@H]2CC[C@@]4(CCC[C@@H](O4)[C@H](C)C(=O)O[C@H]4C[C@H]([C@]5(O)OCC[C@H](C)[C@@H]5O)O[C@H]4C=C1)O2)O3")
"0.00408 µM (active)"
>>> observed("Cn1c(N)nc2c(nc(OCc3ccccc3)n2C2OC(CO)C(O)C2O)c1=O (centres undefined)")
"> 100 µM (inactive)"
>>> observed("CN(C)CC1CC/C(=C\\c2ccc(Cl)c(Cl)c2)C1=O (centres undefined)")
"> 40.6 µM (inactive)"
>>> observed("S=c1[nH]nc(COc2ccc3c(c2)CCCC3)n1/N=C/c1ccc(Cl)cc1")
"17.1 µM (inactive)"
